# System: Erysiphe graminis
# assayDetails: Test F: wheat seedlings sprayed, next day inoculated with Erysiphe graminis (wheat powdery mildew), visual disease rating
# Assay type: in vivo
# conditionDetails: 200 ppm test suspension, sprayed day before inoculation
Here the recorded Test F rating (disease control) is given for each entry.
Write down the numeric answer in % and omit the unit.

# count of solved cases: 3
COc1cc(OC)cc(-c2c(Cl)nnc(C)c2-c2ccc(F)cc2F)c1 :: 79
COc1cc(OC)cc(-c2c(Cl)nnc(C)c2-c2ccc(Cl)cc2)c1 :: 0
COc1cc(OC)cc(-c2c(C)nnc(F)c2-c2c(F)cccc2Cl)c1 :: 99

Request: Can you look up the measured Test F rating (disease control) of COc1cc(OC)cc(-c2c(C)nnc(C)c2-c2ccc(F)cc2F)c1 for me?
Result: 95

Request: For COc1cc(OC)c(Cl)c(-c2c(C)nnc(C)c2-c2c(F)cccc2F)c1Cl then?
Result: 97

* * *

The molecules listed here are annotated with their Test F rating (disease control).
# Test system: Erysiphe graminis
# assayDetails: Test F: wheat seedlings sprayed, next day inoculated with Erysiphe graminis (wheat powdery mildew), visual disease rating
# Assay type: in vivo
# conditionDetails: 200 ppm test suspension, sprayed day before inoculation
Please give a number only; it is taken to be in %.

COc1cc(OC)c(Cl)c(-c2c(C)nnc(C)c2-c2c(F)cccc2Cl)c1 [Compound 43] :: 100
COc1cc(OC)cc(-c2c(C)nnc(F)c2-c2ccc(F)cc2F)c1 [Compound 46] :: 98
COc1cc(OC)cc(-c2c(CC#N)nnc(C)c2-c2c(F)cccc2F)c1 [Compound 35] :: 99
COc1cc(OC)c(Cl)c(-c2c(C)nnc(Cl)c2-c2c(F)cccc2F)c1 [Compound 28] :: 100

Read the next record carefully.
Request: Notebook: pull reported Test F rating (disease control) for Erysiphe graminis, entry COc1cc(OC)c(Cl)c(-c2c(C)nnc(Cl)c2-c2c(F)cccc2Cl)c1 [Compound 41]
Result: 100

* * *

# Test system: Septoria tritici
# assayDetails: Test D: wheat seedlings sprayed, next day inoculated with Septoria tritici (wheat leaf blotch), visual disease rating
# Type: in vivo
# conditionDetails: Zymoseptoria tritici, 40 ppm test suspension (*), sprayed day before inoculation
measure: pest or weed control at 40 ppm (%)
Please state the figure in %; there is no need to write the unit.

COc1cc(OC)cc(-c2c(Cl)nnc(C)c2-c2c(F)cc(F)cc2F)c1 [Compound 12] :: 99
COc1cc(OC)c(Cl)c(-c2c(C)nnc(Cl)c2-c2c(F)cc(F)cc2F)c1 [Compound 23] :: 100

Request: Please provide the recorded pest or weed control at 40 ppm for COc1cc(OC)cc(-c2c(C(C)=O)nnc(C)c2-c2c(F)cc(F)cc2F)c1 [Compound 20] , tested on Septoria tritici.
Result: 96

Request: Try COc1cc(OC)cc(-c2c(C(C)(C)O)nnc(C)c2-c2c(F)cc(F)cc2F)c1 [Compound 21] next.
Result: 98

Request: Same read-out for COc1cc(OC)cc(-c2c(C)nnc(Cl)c2-c2c(F)cccc2F)c1 [Compound 24] ?
Result: 100

Request: Same again, this time with COc1cc(OC)cc(-c2c(C)nnc(Cl)c2-c2c(F)cc(OC)cc2F)c1 [Compound 10]
Result: 99

Request: Moving on to the next molecule: COc1cc(OC)cc(-c2c(C)nnc(Cl)c2-c2c(F)cc(F)cc2F)c1 [Compound 8]
Result: 99

Request: Same again, this time with COc1cc(OC)cc(-c2c(C)nnc(C)c2-c2c(F)cc(F)cc2F)c1 [Compound 9]
Result: 100

Request: # repeat for COc1cc(OC)cc(-c2c(CCl)nnc(Cl)c2-c2c(F)cccc2F)c1 [Compound 26]
Result: 99

Request: Note, next up: COc1cc(OC)cc(-c2c(C)nnc(C)c2-c2c(F)cc(OC)cc2F)c1 [Compound 11]
Result: 100
